- TESTED_SYSTEM: UniProt Q9YQ12
- Sequence (Q9YQ12 as listed by the source): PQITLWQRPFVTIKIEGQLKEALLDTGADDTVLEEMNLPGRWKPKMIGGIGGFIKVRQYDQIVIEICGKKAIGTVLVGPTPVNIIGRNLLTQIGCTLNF
- PROCEDURE_DETAILS: Inhibition of HIV1 protease at 50 nM
Starred links: 1 amine or outer side, 2 acyl side, 3 side chain; linkers in the order of their positions; H or OH if unused. Non-standard residues stand in square brackets, D forms with d. Residues, ends and D or L forms follow the SMILES beside them. X1 = O=C([C@@H](O)[C@H](Cc1ccccc1)N[*:1])[*:2]; Thz(5,5-Me2) = CC1(C)SCN[C@@H]1C(=O)O; Phg = N[C@H](C(=O)O)c1ccccc1; Tle = CC(C)(C)[C@H](N)C(=O)O
Collected inhibition values appear next to each entry.

COMPOUND	RESULT
CC[C@H](C)[C@H](NC(=O)[C@H]1N(C(=O)[C@@H](O)[C@H](Cc2ccccc2)NC(=O)[C@@H](NC(=O)[C@@H](NC(C)=O)c2ccccc2)C(C)(C)C)CSC1(C)C)C(N)=O (Ac-[Phg][Tle][X1][Thz(5,5-Me2)]I-NH2)	> 98%

stdin: Need inhibition of CC(C)(C)[C@H](NC(=O)[C@@H](N)c1ccccc1)C(=O)N[C@@H](Cc1ccccc1)[C@H](O)C(=O)N1CSC(C)(C)[C@H]1C(=O)NCC1CC1 , thanks.
stdout: > 98%

stdin: Same again, this time with CC(=O)N[C@H](C(=O)N[C@H](C(=O)N[C@@H](Cc1ccccc1)[C@H](O)C(=O)N1CSC(C)(C)[C@H]1C(=O)NCC1CC1)C(C)(C)C)c1ccccc1
stdout: > 98%

stdin: Repeat with CC(C)(C)C(=O)N[C@H](C(=O)N[C@H](C(=O)N[C@@H](Cc1ccccc1)[C@H](O)C(=O)N1CSC(C)(C)[C@H]1C(=O)NCC1CC1)C(C)(C)C)c1ccccc1
stdout: > 98%

stdin: Also check CC(=O)N[C@H](C(=O)N[C@H](C(=O)N[C@@H](Cc1ccccc1)[C@H](O)C(=O)N1CSC(C)(C)[C@H]1C(=O)NCC(C)C)C(C)(C)C)c1ccccc1
stdout: > 98%

====

Reported pIC50 values for the following molecules.
- TESTED_SYSTEM: Protease (Human T-cell leukemia virus type I, UniProt Q82134, L40I)
- Sequence (Q82134 entry or part of it L40I): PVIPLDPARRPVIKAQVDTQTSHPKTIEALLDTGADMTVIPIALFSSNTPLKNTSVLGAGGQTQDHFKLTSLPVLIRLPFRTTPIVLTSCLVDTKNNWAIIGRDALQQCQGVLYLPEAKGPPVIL
- PROCEDURE_DETAILS: Inhibition of HTLV1 protease L40I mutant
Starred links: 1 amine or outer side, 2 acyl side, 3 side chain; linkers in the order of their positions; H or OH if unused. Non-standard residues stand in square brackets, D forms with d. Residues, ends and D or L forms follow the SMILES beside them. X1 = O=C([C@@H](O)[C@H](Cc1ccccc1)N[*:1])[*:2]; Thz(5,5-Me2) = CC1(C)SCN[C@@H]1C(=O)O; Phg = N[C@H](C(=O)O)c1ccccc1; Tle = CC(C)(C)[C@H](N)C(=O)O
Just so you know, pIC50 here is -log10 of the concentration in molar units; reply with that number alone.

MOLECULE	TESTED_SYSTEM	PROPERTY	RECORDED_NUMBER
CC(=O)N[C@H](C(=O)N[C@H](C(=O)N[C@@H](Cc1ccccc1)[C@H](O)C(=O)N1CSC(C)(C)[C@H]1C(=O)NC(C)C(C)(C)C)C(C)(C)C)c1ccccc1 (stereo not given in full)	Protease (Human T-cell leukemia virus type I, UniProt Q82134, L40I)	pIC50	6.97
CC(C)CNC(=O)[C@H]1N(C(=O)[C@@H](O)[C@H](Cc2ccccc2)NC(=O)[C@@H](NC(=O)[C@@H](NC(=O)C(C)C)c2ccccc2)C(C)(C)C)CSC1(C)C	Protease (Human T-cell leukemia virus type I, UniProt Q82134, L40I)	pIC50	7.03
CC[C@H](C)[C@H](NC(=O)[C@H]1N(C(=O)[C@@H](O)[C@H](Cc2ccccc2)NC(=O)[C@@H](NC(=O)[C@@H](NC(C)=O)c2ccccc2)C(C)(C)C)CSC1(C)C)C(N)=O (Ac-[Phg][Tle][X1][Thz(5,5-Me2)]I-NH2)	Protease (Human T-cell leukemia virus type I, UniProt Q82134, L40I)	pIC50	6.84
CCC(=O)N[C@H](C(=O)N[C@H](C(=O)N[C@@H](Cc1ccccc1)[C@H](O)C(=O)N1CSC(C)(C)[C@H]1C(=O)NCC1CC1)C(C)(C)C)c1ccccc1	Protease (Human T-cell leukemia virus type I, UniProt Q82134, L40I)	pIC50	6.84

Continue with the molecule presented below.
stdin: // lookup pIC50 for CC(C)CNC(=O)[C@H]1N(C(=O)[C@@H](O)[C@H](Cc2ccccc2)NC(=O)[C@@H](NC(=O)[C@@H](NC(=O)CC(C)C)c2ccccc2)C(C)(C)C)CSC1(C)C
stdout: 6.99

====

- TESTED_SYSTEM: Protease (Human T-cell leukemia virus type I, UniProt Q82134, L40I)
- PROCEDURE_DETAILS: Inhibition of HTLV1 protease L40I mutant
Quick reference for pIC50 among some molecules
Scale: pIC50 equals -log10([C]), with [C] in mol/L.

MOLECULE	pIC50
CSCC[C@H](NC(=O)[C@@H](NC(=O)[C@@H]1CCCN1C(=O)[C@@H](O)[C@H](Cc1ccccc1)NC(=O)[C@@H](NC(=O)[C@H](CCC(N)=O)NC(=O)[C@@H]1CCCN1)C(C)C)C(C)C)C(=O)N[C@@H](Cc1cnc[nH]1)C(=O)O	6.80

stdin: Entry under review: CC(C)CCNC(=O)[C@H]1N(C(=O)[C@@H](O)[C@H](Cc2ccccc2)NC(=O)[C@@H](NC(=O)[C@@H](N)c2ccccc2)C(C)(C)C)CSC1(C)C . Reported pIC50?
stdout: 6.43

stdin: What do you get for CCC(=O)N[C@H](C(=O)N[C@H](C(=O)N[C@@H](Cc1ccccc1)[C@H](O)C(=O)N1CSC(C)(C)[C@H]1C(=O)NC(C)C(C)C)C(C)(C)C)c1ccccc1 (stereo partly specified) ?
stdout: 6.89

stdin: Then this molecule: CCCC(=O)N[C@H](C(=O)N[C@H](C(=O)N[C@@H](Cc1ccccc1)[C@H](O)C(=O)N1CSC(C)(C)[C@H]1C(=O)NCCC(C)C)C(C)(C)C)c1ccccc1
stdout: 7.02

stdin: Now this one: CC(C)CNC(=O)[C@H]1N(C(=O)[C@@H](O)[C@H](Cc2ccccc2)NC(=O)[C@@H](NC(=O)[C@@H](NC(=O)C2CC2)c2ccccc2)C(C)(C)C)CSC1(C)C
stdout: 7.01

stdin: Note, next up: CC(C)(C)CNC(=O)[C@H]1N(C(=O)[C@@H](O)[C@H](Cc2ccccc2)NC(=O)[C@@H](NC(=O)[C@@H](N)c2ccccc2)C(C)(C)C)CSC1(C)C
stdout: 6.74

====

- TESTED_SYSTEM: Protease (Human T-cell leukemia virus type I, UniProt Q82134, L40I)
- PROCEDURE_DETAILS: Inhibition of HTLV1 protease L40I mutant
PROPERTY: IC50 (nM)
Lab book: enter the figure in nM, no units written.

MOLECULE	READOUT_UNIT	IC50
CCCC(=O)N[C@H](C(=O)N[C@H](C(=O)N[C@@H](Cc1ccccc1)[C@H](O)C(=O)N1CSC(C)(C)[C@H]1C(=O)NC(C)C(C)C)C(C)(C)C)c1ccccc1 (stereo not given in full)	nM	659
CC(C)C(C)NC(=O)[C@H]1N(C(=O)[C@@H](O)[C@H](Cc2ccccc2)NC(=O)[C@@H](NC(=O)[C@@H](NC(=O)C(C)(C)C)c2ccccc2)C(C)(C)C)CSC1(C)C (stereo not given in full)	nM	133
CCCC(=O)N[C@H](C(=O)N[C@H](C(=O)N[C@@H](Cc1ccccc1)[C@H](O)C(=O)N1CSC(C)(C)[C@H]1C(=O)NCC(C)C)C(C)(C)C)c1ccccc1	nM	104

stdin: Consider the molecule CCCC(=O)N[C@H](C(=O)N[C@H](C(=O)N[C@@H](Cc1ccccc1)[C@H](O)C(=O)N1CSC(C)(C)[C@H]1C(=O)NCC(C)(C)C)C(C)(C)C)c1ccccc1 and give its measured IC50.
stdout: 74

stdin: Would you kindly repeat that for CC(C)CC(=O)N[C@H](C(=O)N[C@H](C(=O)N[C@@H](Cc1ccccc1)[C@H](O)C(=O)N1CSC(C)(C)[C@H]1C(=O)NC(C)C(C)(C)C)C(C)(C)C)c1ccccc1 (stereo not given in full) ?
stdout: 84

====

Entries and their pIC50 values follow.
- TESTED_SYSTEM: Protease (Human T-cell leukemia virus type I, UniProt Q82134, L40I)
- PROCEDURE_DETAILS: Inhibition of HTLV1 protease L40I mutant
pIC50 is defined as minus the log10 of a concentration measured in mol/L.

stdin: Given the entry CC(C)CNC(=O)[C@H]1N(C(=O)[C@@H](O)[C@H](Cc2ccccc2)NC(=O)[C@@H](NC(=O)[C@@H](NC(=O)C(C)(C)C)c2ccccc2)C(C)(C)C)CSC1(C)C , what pIC50 was observed with Protease (Human T-cell leukemia virus type I, UniProt Q82134, L40I)?
stdout: 7.08

stdin: Thanks! And CC(NC(=O)[C@H]1N(C(=O)[C@@H](O)[C@H](Cc2ccccc2)NC(=O)[C@@H](NC(=O)[C@@H](NC(=O)C(C)(C)C)c2ccccc2)C(C)(C)C)CSC1(C)C)C(C)(C)C (stereo partly drawn) ?
stdout: 7.01

stdin: What do you have for CC(C)C(=O)N[C@H](C(=O)N[C@H](C(=O)N[C@@H](Cc1ccccc1)[C@H](O)C(=O)N1CSC(C)(C)[C@H]1C(=O)NC(C)C(C)C)C(C)(C)C)c1ccccc1 (stereo partly drawn) ?
stdout: 6.91
